System: EPLC-272H
Assay: relative viability (nuclei count vs DMSO), 5 days (fraction); higher = more cells survive
Settings: first compound 1.265 µM
Note to self: relative viability under 0.3 means Y, ties and anything higher get N.

COMPOUND	CLASS
Clc1ccc(Nc2nnc(Cc3ccncc3)c3ccccc23)cc1 [Vatalanib] + CS(=O)(=O)N1CCN(Cc2cc3nc(-c4cccc5[nH]ncc45)nc(N4CCOCC4)c3s2)CC1 [Pictilisib] (partner 1 µM)	N
Clc1ccc(Nc2nnc(Cc3ccncc3)c3ccccc23)cc1 [Vatalanib] + O=C(CCCCCCC(=O)Nc1ccccc1)NO [Vorinostat] (partner 1 µM)	N
COc1cc(N2CCC(C(N)=O)CC2)ccc1Nc1nc(N)c(Cl)c(Nc2ccccc2S(=O)(=O)C(C)C)n1 [HG-5-88-01] + CS(=O)(=O)CCNCc1ccc(-c2ccc3ncnc(Nc4ccc(OCc5cccc(F)c5)c(Cl)c4)c3c2)o1 [Lapatinib] (partner 2 µM)	N
COc1cc(N2CCC(C(N)=O)CC2)ccc1Nc1nc(N)c(Cl)c(Nc2ccccc2S(=O)(=O)C(C)C)n1 [HG-5-88-01] + CC1(C)CCC(c2ccc(Cl)cc2)=C(CN2CCN(c3ccc(C(=O)NS(=O)(=O)c4ccc(N[C@H](CCN5CCOCC5)CSc5ccccc5)c(S(=O)(=O)C(F)(F)F)c4)cc3)CC2)C1 [Navitoclax] (partner 0.5 µM)	N
COc1cc(N2CCC(C(N)=O)CC2)ccc1Nc1nc(N)c(Cl)c(Nc2ccccc2S(=O)(=O)C(C)C)n1 [HG-5-88-01] + CC(C)C[C@H](NC(=O)[C@H](Cc1ccccc1)NC(=O)c1cnccn1)B(O)O [Bortezomib] (partner 0.002 µM)	N

Record Clc1ccc(Nc2nnc(Cc3ccncc3)c3ccccc23)cc1 [Vatalanib] + CC(=O)c1c(C)c2cnc(Nc3ccc(N4CCNCC4)cn3)nc2n(C2CCCC2)c1=O [Palbociclib] (partner 0.5 µM) : is its relative viability strictly below 0.3?
N

Record COc1cc(N2CCC(C(N)=O)CC2)ccc1Nc1nc(N)c(Cl)c(Nc2ccccc2S(=O)(=O)C(C)C)n1 [HG-5-88-01] + CCNC(=O)c1noc(-c2cc(C(C)C)c(O)cc2O)c1-c1ccc(CN2CCOCC2)cc1 [Luminespib] (partner 0.01 µM) : is its relative viability strictly below 0.3?
Y

Record COc1cc(N2CCC(C(N)=O)CC2)ccc1Nc1nc(N)c(Cl)c(Nc2ccccc2S(=O)(=O)C(C)C)n1 [HG-5-88-01] + CC(=O)Nc1cccc(-n2c(=O)n(C3CC3)c(=O)c3c(Nc4ccc(I)cc4F)n(C)c(=O)c(C)c32)c1 [Trametinib] (partner 0.02 µM) : is its relative viability strictly below 0.3?
Y

---

System: NCI-H661
Assay: relative viability (nuclei count vs DMSO), 5 days (fraction); higher = more cells survive
Settings: first compound 0.4 µM
MEASURED PARAMETER: relative viability
Form field (numeric): enter value without unit.

Some solved entries appear below for comparison.
MOLECULE	MEASURED PARAMETER	RESULT
COc1cc(N2CCC(C(N)=O)CC2)ccc1Nc1nc(N)c(Cl)c(Nc2ccccc2S(=O)(=O)C(C)C)n1 [HG-5-88-01] + O=C(CCCCCCC(=O)Nc1ccccc1)NO [Vorinostat] (partner 1 µM)	relative viability	0.771
Clc1ccc(Nc2nnc(Cc3ccncc3)c3ccccc23)cc1 [Vatalanib] + O=C(c1cc(Cc2n[nH]c(=O)c3ccccc23)ccc1F)N1CCN(C(=O)C2CC2)CC1 [Olaparib] (partner 8 µM)	relative viability	0.788
C[C@@H]1CN(CC(=O)Nc2ccc3c(c2)Cc2cccc(-c4cc(=O)cc(N5CCOCC5)o4)c2S3)C[C@H](C)O1 + COc1cccc2cc(-c3nc([C@H]4CC[C@H](C(=O)O)CC4)n4ncnc(N)c34)[nH]c12 [OSI-027] (partner 0.5 µM)	relative viability	0.646
Clc1ccc(Nc2nnc(Cc3ccncc3)c3ccccc23)cc1 [Vatalanib] + Cc1cc(Nc2cc(N3CCN(C)CC3)nc(Sc3ccc(NC(=O)C4CC4)cc3)n2)n[nH]1 [Tozasertib] (partner 0.1 µM)	relative viability	0.331
Clc1ccc(Nc2nnc(Cc3ccncc3)c3ccccc23)cc1 [Vatalanib] + Cc1nc(NC(=O)N2CCC[C@H]2C(N)=O)sc1-c1ccnc(C(C)(C)C(F)(F)F)c1 [Alpelisib] (partner 2 µM)	relative viability	0.717
COc1cc(N2CCC(C(N)=O)CC2)ccc1Nc1nc(N)c(Cl)c(Nc2ccccc2S(=O)(=O)C(C)C)n1 [HG-5-88-01] + CS(=O)(=O)N1CCN(Cc2cc3nc(-c4cccc5[nH]ncc45)nc(N4CCOCC4)c3s2)CC1 [Pictilisib] (partner 1 µM)	relative viability	0.469

Let us move to another entry and its relative viability.
Quick one: relative viability of COc1cc(N2CCC(C(N)=O)CC2)ccc1Nc1nc(N)c(Cl)c(Nc2ccccc2S(=O)(=O)C(C)C)n1 [HG-5-88-01] + C[C@]1(O)C[C@@H](c2nc(-c3ccc4ccc(-c5ccccc5)nc4c3)c3c(N)nccn32)C1 [Linsitinib] (partner 1 µM) ?
0.682

---

# relative viability per entry
Tested on: NCI-H727
Experiment: relative viability (nuclei count vs DMSO), 5 days (fraction); higher = more cells survive
Details: first compound 4 µM
Form field (numeric): enter value without unit.

MOLECULE	relative viability
Clc1ccc(Nc2nnc(Cc3ccncc3)c3ccccc23)cc1 [Vatalanib] + CC(C)C[C@H](NC(=O)[C@H](Cc1ccccc1)NC(=O)c1cnccn1)B(O)O [Bortezomib] (partner 0.002 µM)	0.706

Quick one: relative viability of COc1cc(N2CCC(C(N)=O)CC2)ccc1Nc1nc(N)c(Cl)c(Nc2ccccc2S(=O)(=O)C(C)C)n1 [HG-5-88-01] + Cc1cc(Nc2cc(N3CCN(C)CC3)nc(Sc3ccc(NC(=O)C4CC4)cc3)n2)n[nH]1 [Tozasertib] (partner 0.1 µM) ?
0.429

Quick one: relative viability of COc1cc(N2CCC(C(N)=O)CC2)ccc1Nc1nc(N)c(Cl)c(Nc2ccccc2S(=O)(=O)C(C)C)n1 [HG-5-88-01] + COc1cccc2cc(-c3nc([C@H]4CC[C@H](C(=O)O)CC4)n4ncnc(N)c34)[nH]c12 [OSI-027] (partner 0.5 µM) ?
0.355

---

# relative viability per entry
Test system: NCI-H2023
Test: relative viability (nuclei count vs DMSO), 5 days (fraction); higher = more cells survive
Details: first compound 0.04 µM

Some solved entries appear below for comparison.
COMPOUND	relative viability
COc1cc(N2CCC(C(N)=O)CC2)ccc1Nc1nc(N)c(Cl)c(Nc2ccccc2S(=O)(=O)C(C)C)n1 [HG-5-88-01] + Nc1nc2[nH]cc(CCc3ccc(C(=O)N[C@@H](CCC(=O)O)C(=O)O)cc3)c2c(=O)[nH]1 [Pemetrexed] (partner 0.2 µM)	0.231
COc1cc(N2CCC(C(N)=O)CC2)ccc1Nc1nc(N)c(Cl)c(Nc2ccccc2S(=O)(=O)C(C)C)n1 [HG-5-88-01] + Nc1ncn([C@H]2C[C@H](O)[C@@H](CO)O2)c(=O)n1 [Decitabine] (partner 2 µM)	0.223
COc1cc(N2CCC(C(N)=O)CC2)ccc1Nc1nc(N)c(Cl)c(Nc2ccccc2S(=O)(=O)C(C)C)n1 [HG-5-88-01] + CS(=O)(=O)N1CCN(Cc2cc3nc(-c4cccc5[nH]ncc45)nc(N4CCOCC4)c3s2)CC1 [Pictilisib] (partner 1 µM)	0.222
C[C@@H]1CN(CC(=O)Nc2ccc3c(c2)Cc2cccc(-c4cc(=O)cc(N5CCOCC5)o4)c2S3)C[C@H](C)O1 + CC1(C)CCC(c2ccc(Cl)cc2)=C(CN2CCN(c3ccc(C(=O)NS(=O)(=O)c4ccc(N[C@H](CCN5CCOCC5)CSc5ccccc5)c(S(=O)(=O)C(F)(F)F)c4)cc3)CC2)C1 [Navitoclax] (partner 0.5 µM)	0.993
COc1cc(N2CCC(C(N)=O)CC2)ccc1Nc1nc(N)c(Cl)c(Nc2ccccc2S(=O)(=O)C(C)C)n1 [HG-5-88-01] + CC1(C)CCC(c2ccc(Cl)cc2)=C(CN2CCN(c3ccc(C(=O)NS(=O)(=O)c4ccc(N[C@H](CCN5CCOCC5)CSc5ccccc5)c(S(=O)(=O)C(F)(F)F)c4)cc3)CC2)C1 [Navitoclax] (partner 0.5 µM)	1.01
Clc1ccc(Nc2nnc(Cc3ccncc3)c3ccccc23)cc1 [Vatalanib] + C[C@@H](Oc1cc(-c2cnn(C3CCNCC3)c2)cnc1N)c1c(Cl)ccc(F)c1Cl [Crizotinib] (partner 1 µM)	0.571
C[C@@H]1CN(CC(=O)Nc2ccc3c(c2)Cc2cccc(-c4cc(=O)cc(N5CCOCC5)o4)c2S3)C[C@H](C)O1 + O=C(CCCCCCC(=O)Nc1ccccc1)NO [Vorinostat] (partner 1 µM)	0.578
C[C@@H]1CN(CC(=O)Nc2ccc3c(c2)Cc2cccc(-c4cc(=O)cc(N5CCOCC5)o4)c2S3)C[C@H](C)O1 + Cc1nc(Nc2ncc(C(=O)Nc3c(C)cccc3Cl)s2)cc(N2CCN(CCO)CC2)n1 [Dasatinib] (partner 0.075 µM)	0.638
C[C@@H]1CN(CC(=O)Nc2ccc3c(c2)Cc2cccc(-c4cc(=O)cc(N5CCOCC5)o4)c2S3)C[C@H](C)O1 + COc1cc2c(Oc3ccc(NC(=O)C4(C(=O)Nc5ccc(F)cc5)CC4)cc3F)ccnc2cc1OCCCN1CCOCC1 [Foretinib] (partner 0.25 µM)	0.732
COc1cc(N2CCC(C(N)=O)CC2)ccc1Nc1nc(N)c(Cl)c(Nc2ccccc2S(=O)(=O)C(C)C)n1 [HG-5-88-01] + COc1cccc2cc(-c3nc([C@H]4CC[C@H](C(=O)O)CC4)n4ncnc(N)c34)[nH]c12 [OSI-027] (partner 0.5 µM)	0.433

Quick one: relative viability of COc1cc(N2CCC(C(N)=O)CC2)ccc1Nc1nc(N)c(Cl)c(Nc2ccccc2S(=O)(=O)C(C)C)n1 [HG-5-88-01] + Cc1cc(Nc2cc(N3CCN(C)CC3)nc(Sc3ccc(NC(=O)C4CC4)cc3)n2)n[nH]1 [Tozasertib] (partner 0.1 µM) ?
0.35

Quick one: relative viability of Clc1ccc(Nc2nnc(Cc3ccncc3)c3ccccc23)cc1 [Vatalanib] + N=C(N)NC(=N)NCCc1ccccc1 [Phenformin] (partner 250 µM) ?
0.447

Quick one: relative viability of COc1cc(N2CCC(C(N)=O)CC2)ccc1Nc1nc(N)c(Cl)c(Nc2ccccc2S(=O)(=O)C(C)C)n1 [HG-5-88-01] + O=C(CCCCCCC(=O)Nc1ccccc1)NO [Vorinostat] (partner 1 µM) ?
0.764
